Where do these numbers come from? They come from the Human Domainome abundance scans (Beltran et al. 2025).

Record form. Attribute: abundance fitness. Fill in for each entry.
B1: Zinc finger homeobox protein 3, residues 2147 to 2202; numbered along this chain, Q15911 (parent)
chain: RPRTRITDDQLRVLRQYFDINNSPSEEQIKEMADKSGLPQKVIKHWFRNTLFKERQ

Variants of: B1
method_description: abundance fitness (aPCA) (normalised: wild type 0, dead -1); higher = more abundant; growth selection in yeast, the domain comes from the species named
condition_notes: Homo sapiens
One number for each entry.

[[record]]
var = "E54T"
experimental_readout = "abundance fitness"
measured_number = -0.048

[[record]]
var = "G37T"
experimental_readout = "abundance fitness"
measured_number = -0.342

[[record]]
var = "K44A"
experimental_readout = "abundance fitness"
measured_number = -0.096

[[record]]
var = "R15M"
experimental_readout = "abundance fitness"
measured_number = -0.023

[[record]]
var = "S23T"
experimental_readout = "abundance fitness"
measured_number = 0.102


The following variants each have a reported value; give each one's abundance fitness.
1. A33Q
2. F52I

Reply:
-0.185
-0.296
